test: molar heat capacity at constant pressure; settings: 288.15 K; 101.33 kPa; Crystal; Small sample (50 mg) DSC
measure: molar heat capacity at constant pressure (J/K/mol)

Sample answers from the record:
>>> result_number("O=C[C@H](O)[C@@H](O)[C@@H](O)[C@H](O)CO [(+)-galactose]")
203.3
>>> result_number("OC[C@H]1OC(O)C[C@@H](O)[C@@H]1O (some centres undefined)")
189.6

(A) CO[C@H]1O[C@H](CO)[C@@H](O)[C@H](O)[C@H]1O [methyl-α-D-glucopyranoside]
(B) OC[C@H]1O[C@@](CO)(O[C@H]2O[C@H](CO)[C@@H](O)[C@H](O)[C@H]2O)[C@@H](O)[C@@H]1O
input: Which record shows the lower molar heat capacity at constant pressure: the first, A , or the second, B ? I would appreciate it if you answered with the label of your choice.
output: A

====

experiment: molar heat capacity at constant pressure; conditions: 318.15 K; 101.33 kPa; Crystal; Small sample (50 mg) DSC
measure: molar heat capacity at constant pressure (J/K/mol)

Sample answers from the record:
>>> result_number("CC(=O)N[C@@H](C=O)[C@@H](O)[C@H](O)[C@H](O)CO")
281.4
>>> result_number("CO[C@H]1O[C@H](CO)[C@@H](O)[C@H](O)[C@H]1O [methyl-α-D-glucopyranoside]")
255.9
>>> result_number("O=C[C@@H](O)[C@@H](O)[C@H](O)[C@H](O)CO")
231.6
>>> result_number("OC[C@H]1O[C@@H]2O[C@H]3[C@H](O)[C@@H](O)[C@@H](O[C@H]4[C@H](O)[C@@H](O)[C@@H](O[C@H]5[C@H](O)[C@@H](O)[C@@H](O[C@H]6[C@H](O)[C@@H](O)[C@@H](O[C@H]7[C@H](O)[C@@H](O)[C@@H](O[C@H]8[C@H](O)[C@@H](O)[C@@H](O[C@H]1[C@H](O)[C@H]2O)O[C@@H]8CO)O[C@@H]7CO)O[C@@H]6CO)O[C@@H]5CO)O[C@@H]4CO)O[C@@H]3CO")
1434.7

(a) OC[C@H]1O[C@H](O)[C@H](O)[C@@H](O)[C@@H]1O
(b) OC[C@H]1O[C@@H](O[C@H]2[C@H](O)[C@@H](O)[C@H](O)O[C@@H]2CO)[C@H](O)[C@@H](O)[C@@H]1O
input: // max by molar heat capacity at constant pressure over [ a , b ] I would appreciate it if you answered with the label of your choice.
output: b
(b: 448.7 J/K/mol, a: 235.8 J/K/mol)

====

experiment: molar heat capacity at constant pressure; conditions: 348.15 K; 101.33 kPa; Crystal; Small sample (50 mg) DSC
measure: molar heat capacity at constant pressure (J/K/mol)

>>> result_number("OC[C@H]1O[C@@H]2O[C@H]3[C@H](O)[C@@H](O)[C@@H](O[C@H]4[C@H](O)[C@@H](O)[C@@H](O[C@H]5[C@H](O)[C@@H](O)[C@@H](O[C@H]6[C@H](O)[C@@H](O)[C@@H](O[C@H]7[C@H](O)[C@@H](O)[C@@H](O[C@H]8[C@H](O)[C@@H](O)[C@@H](O[C@H]1[C@H](O)[C@H]2O)O[C@@H]8CO)O[C@@H]7CO)O[C@@H]6CO)O[C@@H]5CO)O[C@@H]4CO)O[C@@H]3CO")
1634.4
>>> result_number("OC[C@H]1O[C@@H]2O[C@H]3[C@H](O)[C@@H](O)[C@@H](O[C@H]4[C@H](O)[C@@H](O)[C@@H](O[C@H]5[C@H](O)[C@@H](O)[C@@H](O[C@H]6[C@H](O)[C@@H](O)[C@@H](O[C@H]7[C@H](O)[C@@H](O)[C@@H](O[C@H]1[C@H](O)[C@H]2O)O[C@@H]7CO)O[C@@H]6CO)O[C@@H]5CO)O[C@@H]4CO)O[C@@H]3CO")
1401.6
>>> result_number("O=C[C@@H](O)[C@@H](O)[C@H](O)[C@H](O)CO")
252.4
>>> result_number("OC[C@H]1O[C@H](O)[C@H](O)[C@@H](O)[C@@H]1O")
260.4
